Values from ChEMBL document CHEMBL4513216

Test system: Plasmodium berghei
Test: Screen against P. berghei liver stage (PbLuc), transformed with Luciferase, at 10uM
Assay type: functional, HepG2
Details: tested at 10 uM
Out of some 69,000 compounds screened, about 8,600 (12%) showed an effect of 50% or more. Shown is part of a subset that was picked to be rich in strong results.
# note: boundary value 30% maps to No; INHIBITION below it maps to Yes

                                    compound   target_under_test  assigned_label
 0  CC(C(=O)NCc1ccc(N2CCCC2)nc1)n1cncn1 (stereo not given)  Plasmodium berghei             Yes
 1        Cc1cc(C)c(C#N)c(NCCn2cnnc2C(C)C)n1  Plasmodium berghei              No
 2      Cc1cc(CNc2cc(-c3ccoc3C)nn2CCO)c(C)o1  Plasmodium berghei              No
 3    COc1nc2cc(C)ccc2cc1CN(C)Cc1cc(C)[nH]n1  Plasmodium berghei              No
 4      COc1cccc2c3c(c(=O)[nH]c12)CC(C)(C)O3  Plasmodium berghei             Yes
 5  CC(C(=O)NCCN1CCN(C)CC1)n1cncn1 (stereo not given)  Plasmodium berghei              No
 6             CCn1cnnc1CCNc1nc(C)cc(C)c1C#N  Plasmodium berghei              No
 7   Cc1nnc(CCNC2CCN(c3ncnc4c(C)csc34)CC2)s1  Plasmodium berghei              No
 8  CC(C(=O)Nc1ccc(N2CCOCC2)nc1)n1cncn1 (stereo not given)  Plasmodium berghei              No
 9  Cc1ccc(C)c2c(O)cc(CN3CCC(=O)NCC3C)nc12 (stereo not given)  Plasmodium berghei             Yes
10  Cc1cccc(N2CCN(CCNC(=O)C(C)n3cncn3)CC2)c1 (stereo not given)  Plasmodium berghei              No
11      Cc1nn2cccnc2c1C(=O)NCc1ccccc1OCC1CC1  Plasmodium berghei             Yes
12                 CN(CC(N)=O)Cc1ccc(F)cc1Cl  Plasmodium berghei             Yes
13  Fc1cccc(C2CCCN2Cc2nnnn2C2CC2)c1 (stereo not given)  Plasmodium berghei              No
14  CC(C(=O)NCCCN1CCN(c2ccccc2)CC1)n1cncn1 (stereo not given)  Plasmodium berghei             Yes
15  CC(C)NC(=O)CC(C)NCc1ccc(F)cc1Cl (stereo not given)  Plasmodium berghei              No
16  CC(CCCC(C)(C)O)Nc1ccc(-c2nccn2C)nn1 (stereo not given)  Plasmodium berghei              No
17  CC(C(=O)Nc1ccc(N2CCCC2)nc1)n1cccn1 (stereo not given)  Plasmodium berghei             Yes
18  COCCN1CCCC2(CCN(c3nc(C)nc4ccsc34)C2)C1=O (stereo not given)  Plasmodium berghei              No
19  CC1(C(=O)N2CCSCC2)CNCCO1 (stereo not given)  Plasmodium berghei              No
20        CCc1ccc(CNc2cc(-c3ccoc3C)nn2CCO)o1  Plasmodium berghei              No
21  COCCCN1CC2(CCCN(c3ncc(Cl)cc3F)C2)CCC1=O (stereo not given)  Plasmodium berghei              No
22  CCCN1CCCC2(CCN(c3nc(C)nc4ccsc34)C2)C1=O (stereo not given)  Plasmodium berghei              No
23  CSCC[C@H](NC(=O)N1CCC(Cc2ccccc2)CC1)C(=O)O  Plasmodium berghei             Yes
24  CC1CNC(=O)CCN1Cc1cc(O)c2cccc(F)c2n1 (stereo not given)  Plasmodium berghei              No
25  CC(C(=O)Nc1ccc(N2CCCCC2)nc1)n1cncn1 (stereo not given)  Plasmodium berghei             Yes
26  COc1ccccc1CC(C)CC(=O)N(C)Cc1cc(C)on1 (stereo not given)  Plasmodium berghei             Yes
27        Cc1cccc(CN2CCc3ncnc(C4CC4)c3CC2)n1  Plasmodium berghei             Yes
28  CC(C(=O)Nc1cccc(N2CCCCC2)c1)n1cncn1 (stereo not given)  Plasmodium berghei              No
29  Cc1cnn(CC2CCCN2CC(=O)Nc2nccs2)c1 (stereo not given)  Plasmodium berghei             Yes
30     Cc1cc(CNc2cc(Cl)ccc2OCCS(C)(=O)=O)no1  Plasmodium berghei              No
31  COc1nccnc1N1CCC2(CCCN(C(C)C)C2=O)C1 (stereo not given)  Plasmodium berghei             Yes
32  CC(C(=O)NCc1ccc(N2CCCCC2)nc1)n1cncn1 (stereo not given)  Plasmodium berghei             Yes
33  CN1CCCN(C(=O)c2cc(-c3cc[nH]n3)n3ccccc23)CC1  Plasmodium berghei              No
34  O=C1CN(Cc2cc(O)c3cccc(F)c3n2)CCN1C1CCCC1  Plasmodium berghei              No
35         CC(C)OCCN1CCC(Nc2ccc(C#N)cc2F)CC1  Plasmodium berghei             Yes
36  CN(C)C1CCN(C(=O)c2cc(-c3ccn(C)n3)n3ccccc23)CC1  Plasmodium berghei              No
37     Cc1csc2c(N3CCC(NCCc4ccnn4C)CC3)ncnc12  Plasmodium berghei              No
38  Cc1nc(N2CCC3(CCCN(CC4CC4)C3=O)C2)c2sccc2n1 (stereo not given)  Plasmodium berghei              No
39  O=C(NCc1ccccc1OCC1CC1)C1CCOC1 (stereo not given)  Plasmodium berghei              No
40  CC(Cn1cncn1)Nc1ccc(-c2nccn2C)nn1 (stereo not given)  Plasmodium berghei             Yes
41  Cn1ccc(-c2cc(C(=O)N3CCC(C(N)=O)CC3)c3ccccn23)n1  Plasmodium berghei             Yes
42  CCC(CNC(=O)CNC(C)=O)Oc1cccc(F)c1 (stereo not given)  Plasmodium berghei              No
43  Cc1nc(N2CCC3(CCCN(CCO)C3=O)C2)c2sccc2n1 (stereo not given)  Plasmodium berghei              No
44  CC1CN(C(=O)c2cccc(OCc3cscn3)c2)CCO1 (stereo not given)  Plasmodium berghei              No
45  CC(C(=O)Nc1ccc(N2CCCC2)nc1)n1cncn1 (stereo not given)  Plasmodium berghei              No
46       CCCc1cncnc1N1CCC(NCCc2ccc(O)cc2)CC1  Plasmodium berghei              No
